- assay: Metabolic stability in human liver microsomes assessed as half life in presence of NADPH
- Format: ADME, Microsome
observable: half-life

1) O=S(=O)(NC1CCNCC1)c1cc(S(=O)(=O)c2ccccc2)ccc1C(F)(F)F
> 1 h

----------
- assay: Metabolic stability in human liver microsomes assessed as half life
- Type: ADME, Microsome
observable: half-life

1. CC(C)(C)CC(=O)N1CCC[C@H]1C(=O)N1CCC(NS(=O)(=O)c2cc(S(=O)(=O)c3ccccc3)ccc2C(F)(F)F)CC1
> 1 min
2. CC(C)(C)OC(=O)N1CCC[C@H]1C(=O)N1CCC(NS(=O)(=O)c2cc(S(=O)(=O)c3ccccc3)ccc2C(F)(F)F)CC1
> 1 min
3. CC(C)(C)NC(=O)N1CCC[C@H]1C(=O)N1CCC(NS(=O)(=O)c2cc(S(=O)(=O)c3ccccc3)ccc2C(F)(F)F)CC1
> 2 min
4. CC(C)(C)CCN1CCC[C@H]1C(=O)N1CCC(NS(=O)(=O)c2cc(S(=O)(=O)c3ccccc3)ccc2C(F)(F)F)CC1
> 5 min
